Form field: half-life (one value per entry).
- protocol_summary: Half life in rat at 5 mg/kg, po
- Format: ADME, organism-based
- condition_details: in vivo
Dear colleague, please return just the value in h, with no unit written.

half-life recorded for this compound, COc1nc2ccc(C(O)(c3ccc(Cl)cc3)c3cncn3C)cc2c(Cl)c1Cc1ccc(-n2cccn2)cc1 (configuration not stated) , is 5.6

Form: compound = `COc1nc2ccc([C@@](O)(c3ccc(C(F)(F)F)nc3)c3cncn3C)cc2c(Cl)c1CN1CCC(C(F)(F)F)CC1` ; half-life = 8.5

====

- protocol_summary: Equilibrium aqueous solubility of the compound at pH 2
- Type: physicochemical
Attribute: solubility thermodynamic

compound | solubility thermodynamic
COc1nc2ccc(C(O)(c3ccc(C)nc3C)c3cnnn3C)cc2c(Cl)c1OC(C)C (stereo not drawn) | > 400 µM

Lookup result for COc1nc2ccc(C(O)(c3ccc(C)nc3C)c3cnnn3C)cc2c(Cl)c1CC1CC1 (stereo not drawn) ; measured solubility thermodynamic: > 400 µM

Per the record, COc1nc2ccc(C(O)(c3ccnc(C(F)(F)F)c3)c3cnnn3C)cc2c(Cl)c1CN1CCC(C(F)(F)F)CC1 (stereo not drawn) has solubility thermodynamic of > 400 µM

The recorded solubility thermodynamic for COc1nc2ccc(C(O)(c3cnc(C)n3C)C3CN(C(C)=O)C3)cc2c(Cl)c1CN1CCC(C(F)(F)F)CC1 (stereo not drawn) is > 400 µM

====

- protocol_summary: Equilibrium aqueous solubility of the compound at pH 7
- Format: physicochemical
# reported solubility thermodynamic; entries follow

Consider the reported solubility thermodynamic for these compounds:
compound | value_measured
COc1nc2ccc(C(O)(c3ccnc(C(F)(F)F)c3)c3cnnn3C)cc2c(Cl)c1CN1CCC(C(F)(F)F)CC1 (stereo not drawn) | < 4 µM
COc1nc2ccc(C(O)(c3ccc(C)nc3C)c3cnnn3C)cc2c(Cl)c1CN1CC(C(F)(F)F)C1 (stereo not drawn) | 8 µM

Lab book: solubility thermodynamic of COc1nc2ccc(C(O)(c3ccnc(C(F)(F)F)c3)c3cncn3C)cc2c(Cl)c1CN1CCC(C(F)(F)F)CC1 (stereo not drawn) noted as < 1 µM

Looking up COc1nc2ccc(C(O)(c3cnc(C)n3C)C3CCOCC3)cc2c(Cl)c1CN1CCC(C(F)(F)F)CC1 (stereo not drawn) , I see its solubility thermodynamic listed as 283 µM

# solubility thermodynamic (compound: COc1nc2ccc(C(O)(c3ccc(C)nc3C)c3cnnn3C)cc2c(Cl)c1CN1CCC(F)(F)CC1 (stereo not drawn) ) is < 4 µM

Recorded solubility thermodynamic (compound COc1nc2ccc(C(O)(c3ccc(C)nc3C)c3cnnn3C)cc2c(Cl)c1Cc1ccc(C(F)(F)F)cc1 (stereo not drawn) ): < 1 µM

Reported solubility thermodynamic of COc1nc2ccc(C(O)(c3ccc(C)nc3C)c3cnnn3C)cc2c(Cl)c1CC(F)(F)F (stereo not drawn) : < 4 µM

solubility thermodynamic measured on COc1nc2ccc(C(O)(c3ccc(C)nc3C)c3cnnn3C)cc2c(Cl)c1C1CCCC1 (stereo not drawn) = < 4 µM

====

- protocol_summary: Oral bioavailability in rat at 5 mg/kg
- condition_details: in vivo
Quick list: bioavailability per entry.
Your answer should be a plain number; it is taken to be in %.

compound | bioavailability (%)
COc1nc2ccc(C(O)(c3ccc(Cl)cc3)c3cncn3C)cc2c(Cl)c1Cc1ccc(-n2cccn2)cc1 (configuration not stated) | 42

So for `COc1nc2ccc([C@@](O)(c3ccc(C(F)(F)F)nc3)c3cncn3C)cc2c(Cl)c1CN1CCC(C(F)(F)F)CC1` , the logged bioavailability turned out to be 77
